Reference for the values: paper PMC6021345

Target Or System: CES2 (Homo sapiens, UniProt O00748)
Sequence (O00748 27-559): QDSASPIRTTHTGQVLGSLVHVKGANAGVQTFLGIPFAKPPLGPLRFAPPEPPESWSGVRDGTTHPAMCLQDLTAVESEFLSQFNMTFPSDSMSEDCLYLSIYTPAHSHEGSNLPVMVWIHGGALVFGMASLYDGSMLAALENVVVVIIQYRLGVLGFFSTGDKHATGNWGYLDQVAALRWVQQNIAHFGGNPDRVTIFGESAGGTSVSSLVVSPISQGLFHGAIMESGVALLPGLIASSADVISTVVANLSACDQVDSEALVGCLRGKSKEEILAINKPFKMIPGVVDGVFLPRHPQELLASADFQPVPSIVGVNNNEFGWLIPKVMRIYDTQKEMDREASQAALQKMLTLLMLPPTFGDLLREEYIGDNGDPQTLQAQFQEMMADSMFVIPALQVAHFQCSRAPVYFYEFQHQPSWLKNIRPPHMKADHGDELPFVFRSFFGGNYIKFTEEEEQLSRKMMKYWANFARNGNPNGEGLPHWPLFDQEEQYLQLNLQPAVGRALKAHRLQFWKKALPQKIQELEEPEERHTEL
Assay Text: In vitro CES2 enzyme-based assay (4-NPA substrate)
Conditions Used: recombinant CES2, 4-NPA, 15 min, 25°C
Recorded Metric: IC50 (nM)

compound="O=C(/C=C/c1ccccc1)c1ccc(O)cc1O [2’, 4’-dihydroxychalcone]" result=1660
